// reported self-cleavage kobs at 2500 uM GlcN6P for each item listed
B1: glmS ribozyme (parent)
chain: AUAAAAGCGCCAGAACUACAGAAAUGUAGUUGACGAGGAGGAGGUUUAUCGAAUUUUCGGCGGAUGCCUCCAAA

# Variants of: B1
# protocol: self-cleavage kobs at 2500 uM GlcN6P; higher = faster cleavage; RNA array
# particulars: with glucosamine-6-phosphate
Variants at the floor of the assay were thinned out.

For orientation, consider the following solved cases.
## Input Fill in: self-cleavage kobs at 2500 uM GlcN6P of "AUAAAAGCGCCAGAACUACAGAAAUGUAGUUGGCGAGGAGGAGUUUUAUCGAAUUUUCGGCGUAUGCCUCCAAA" is ___
## Output < 1e-05 s⁻¹

## Input So what's the measured self-cleavage kobs at 2500 uM GlcN6P for this one? "AUAAAAGCGUCAGAACUACAGAAAUGUAGUUGACGACGAGGAGUUUUAUCGAAUUUUCGGCGGACGCCUCCAAA"
## Output < 1e-05 s⁻¹

## Input Field request: self-cleavage kobs at 2500 uM GlcN6P | item: "AUAAAAGCGCCAUAACUACAGAAAUGUAGUGGACGACGAGGAGGUUUCUCGAAUUUUCGGCGGAUGCCUCCAAA"
## Output < 1e-05 s⁻¹

## Input Form field: reported self-cleavage kobs at 2500 uM GlcN6P of "AUAAAAGCGCCACAUCUACAGAAAUGUAGUUGACGAGGAGUGCGUUUAUCGAAUUUUCGGCGGAUGCCUCCAAA"
## Output < 1e-05 s⁻¹

## Input For the variant "AUAAAAGCGCCAGAACUACAGAAAUGUAGUUGACGACGAGGAGGUUUAUCGAAUUUUCGGCGGGUGCCUCCAAA" , what self-cleavage kobs at 2500 uM GlcN6P is on record?
## Output 4.35e-05 s⁻¹

## Input Tell me the measured self-cleavage kobs at 2500 uM GlcN6P of "AUAAAAGCGCCAGAACUACAGAAAUGUAGUUGACGAGGAGGAGGUUGAUCGACUUUUCGGCGGAUGCCUCCAAA" , please.
## Output 0.00196 s⁻¹

Continuing:
## Input Sample "AUAAAAGCGCCAGAACUACAGAAAUGUAGUUGACAAGGAGGAGGUUUAUAGAAUCUUCGGCAGUUGCCUCCAAA" — what was its self-cleavage kobs at 2500 uM GlcN6P?
## Output < 1e-05 s⁻¹

## Input Give its self-cleavage kobs at 2500 uM GlcN6P value. Item: "AUAAAAGCGCCAGAACUACAGAAAUGUAGUUGACGAGGAGGAGGCUUAUCGAAUUUUCGGCGGAUGUCUCCAAA"
## Output 0.00203 s⁻¹

## Input What measured self-cleavage kobs at 2500 uM GlcN6P goes with "AUAAAAGCGCCAGAACUACAGAAAUGUAGUAGACGAGGAGGAGGUUUAUCGUAUUUUCGGCGGAUGCCUCCAAA" ?
## Output 2.52e-05 s⁻¹

## Input Need self-cleavage kobs at 2500 uM GlcN6P, item "AUAAAAGCGCCAGAUCUACAGAAAUGUAGUUGGCGAGGAGGAGUUUUUUCGAAUUUUCGGCGGAUGCCUCCAAA"
## Output < 1e-05 s⁻¹

## Input Which self-cleavage kobs at 2500 uM GlcN6P is reported for this variant? "AUAAAAGCGCCAGAACUACAGAAAUGUAGUUGACGGCGAGGAGGUCUAUCGAAUUUUCGGCGGAUGCCUCCAAA"
## Output < 1e-05 s⁻¹

## Input // query self-cleavage kobs at 2500 uM GlcN6P value for entry "AUAAAAGCGCCAGAACUACAGAAAUGUAGUUGACGAGGAGGAGGUUUUUCGAAUACUCGGCGGAUGCCUCCAAA"
## Output 3.8e-05 s⁻¹

## Input Could you tell me which self-cleavage kobs at 2500 uM GlcN6P is on file for "AUAAAAGCGCCAGAACUACAGAAAUGUAGUUGACGAAGAGGAGGUUUAACGGAUUUUCGGCGGAUGCCUCCAAA" ?
## Output < 1e-05 s⁻¹

## Input May I ask what self-cleavage kobs at 2500 uM GlcN6P has been recorded for "AUAAAAGCGCCAGAACUACAGAAAUGUAGUUGACGAGGAGGCGGUUUAUCAAAUUUUCGGCGGAUGCCUCCAAA" ?
## Output < 1e-05 s⁻¹

## Input Can you share its self-cleavage kobs at 2500 uM GlcN6P? I mean this variant: "AUAAAAGCGCCAGAACUACAGAAAUGUAGUUGAAGAUGUGGAGGUUUAUCGAAUUUCCGGCGGAUGACUCCAAA"
## Output < 1e-05 s⁻¹

## Input Can you look up the measured self-cleavage kobs at 2500 uM GlcN6P of "AUAAAAGCGCCAGAACUACAGAAAUGUAGUUGACGCGGAGAAGGUUUAUCGAAUUUUCGGCGGAUUCCUCCAAA" for me?
## Output < 1e-05 s⁻¹

## Input Which self-cleavage kobs at 2500 uM GlcN6P value belongs to "AUAAAAGAGCCAGAACUACAGAAAUGUAGUUGCCUAGGAGGAGGUUUAUCGAAUUUUCGGCGUAUGCCUCCAAA" ?
## Output < 1e-05 s⁻¹

## Input Need self-cleavage kobs at 2500 uM GlcN6P, item "AUAAAAGCGCCAGAACUACAGAAAUGUAGUUGACGAGGCGGAGGUUUAUCAAAUUUUCGGCGGAUGCCUCCAAA"
## Output < 1e-05 s⁻¹

## Input I have this variant here, "AUAAAAGCGCCAGAACUACAGAAAUGUAGUUGACGAGGAGAAGGUUUAUCGAAUGUUCGGCGGAUGCCUCCAAA" , and I need its recorded self-cleavage kobs at 2500 uM GlcN6P.
## Output 0.000107 s⁻¹
